Each recorded value in this set is attributed to patent US5147868A.

Molecular target: dipeptidase (E.C.3.4.13.11), pig renal enzyme (Sus scrofa, UniProt P22412)
Construct: solubilized preparation of dipeptidase isolated from hog kidneys
Sequence (P22412 17-409): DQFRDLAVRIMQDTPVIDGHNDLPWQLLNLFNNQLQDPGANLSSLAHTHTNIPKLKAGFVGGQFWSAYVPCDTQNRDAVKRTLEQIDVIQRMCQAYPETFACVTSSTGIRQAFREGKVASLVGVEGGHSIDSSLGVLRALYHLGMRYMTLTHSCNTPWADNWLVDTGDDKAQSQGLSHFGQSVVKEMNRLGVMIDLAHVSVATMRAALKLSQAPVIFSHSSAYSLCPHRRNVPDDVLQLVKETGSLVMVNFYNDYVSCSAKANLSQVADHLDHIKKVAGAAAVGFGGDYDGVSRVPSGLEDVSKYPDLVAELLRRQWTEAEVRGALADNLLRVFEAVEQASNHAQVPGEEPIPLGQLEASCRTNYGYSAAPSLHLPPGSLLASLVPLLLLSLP
Assay: in vitro inhibition of hydrolysis of glycyldehydrophenylalanine (GDP) by solubilized renal dipeptidase
Settings: pH 7.1, 37° C.; concentration giving 50% inhibition, calculated from multiple assays; GDP substrate
reportedProperty: Ki (nM)
A number alone suffices; assume nM.

Entry CC1(C)CC1C(=O)N/C(=C\CCCC(=O)O)C(=O)O (racemic) [Compound 64] ; Ki = 48
